- System Name: SARS-CoV-2 NSP3 macrodomain (Mac1), P43 crystal form (Severe acute respiratory syndrome coronavirus 2, UniProt P0DTD1)
- Format: binding
- Condition Context: crystal soak 10 mM; DMSO background map; event 1
Quantity Name: 1-BDC (PanDDA run, DMSO background map)

Before answering, review these 5 worked examples.
CC1CCCC(O)(CNc2ncnc3[nH]ccc23)C1 (stereo not drawn) | 0.17
OC1(CNc2ncnc3[nH]ccc23)CCCOC1 (stereo not drawn) | 0.25
CC1(C)CCC(O)(CNc2ncnc3[nH]ccc23)CC1 | 0.14
OC1(CNc2ncnc3[nH]ccc23)CCCC(C(F)(F)F)C1 (stereo not drawn) | 0.21
OC1(CNc2ncnc3[nH]ccc23)CCC(F)(F)CC1 | 0.15

Could you now consider this next compound?
q: Look up 1-BDC (PanDDA run, DMSO background map) of C[C@@H]1CCN(c2ncnc3[nH]ccc23)[C@H](CO)C1 (racemic) and report it.
a: 0.19

* * *

- System Name: SARS-CoV-2 NSP3 macrodomain (Mac1) (Severe acute respiratory syndrome coronavirus 2)
- Assay: biochemical
- Type: binding
- Condition Context: SARS CoV-2 macrodomain HTRF assay, dose-response
Quantity Name: Hill slope
The answer should be written as a number, with no unit following it.

Before answering, review these 5 worked examples.
O=C(O)C(F)(F)F.OCC1(Nc2ncnc3[nH]ccc23)CCC1 [AVI-3670] | 1.2
OCCC(CO)Nc1ncnc2[nH]ccc12 (stereo not drawn) [AVI-3734] | 1.2
O=C(O)C(F)(F)F.OCC1(Nc2ncnc3[nH]ccc23)CCCC1 [AVI-3692] | 1.3
O=C(O)C(F)(F)F.OC[C@H](Cc1ccc(O)cc1)Nc1ncnc2[nH]ccc12 [AVI-4066] | 1.1
OCC(Nc1ncnc2[nH]ccc12)C1CC1 (stereo not drawn) [AVI-3651] | 1.2

q: Look up Hill slope of CCC(CC)(CO)Nc1ncnc2[nH]ccc12 [AVI-3695] and report it.
a: 1.3

q: Look up Hill slope of CC(C)(CO)Nc1ncnc2[nH]ccc12 [AVI-5266] and report it.
a: 1.1

q: Look up Hill slope of CC(c1ccccc1)C(CO)Nc1ncnc2[nH]ccc12 (stereo not drawn) [AVI-3669] and report it.
a: 1.2

q: Look up Hill slope of CCC(C)(CO)Nc1ncnc2[nH]ccc12 (stereo not drawn) [AVI-3697] and report it.
a: 1.2

* * *

- Assay: Microsomal stability
- Assay type: in vitro ADME, mouse
- Condition Context: liver microsomes, pH 7.4; mouse microsome stability; read-out: T1/2 (min), mean
Quantity Name: half-life at 1 µM (min)
Quick reminder: number only, in min, skip the unit.

q: Look up half-life at 1 µM of O=C1CCCN1Nc1ncnc2[nH]c3cc(F)ccc3c12 [AVI-219, reference compound] and report it.
a: 26.1

* * *

- System Name: SARS-CoV-2 NSP3 macrodomain (Mac1), P43 crystal form (Severe acute respiratory syndrome coronavirus 2, UniProt P0DTD1)
- Format: binding
- Condition Context: PanDDA background density correction
Please use T whenever 1-BDC is not below 0.2, and F whenever it is.

Cc1ccc(CC(CO)Nc2ncnc3[nH]ccc23)cc1 (stereo not shown) | F
Cc1ccccc1CC(CO)Nc1ncnc2[nH]ccc12 (stereo not shown) | F
CN(CC1(O)CCOCC1)c1ncnc2[nH]ccc12 | T

q: Please tell me: is the molecule Cc1c[nH]c2ncnc(NCC3(O)CCC(O)CC3)c12 (stereo not shown) at or over 0.2 in terms of 1-BDC?
a: F

q: Please tell me: is the molecule OCC(Cc1cncs1)Nc1ncnc2[nH]ccc12 (stereo not shown) at or over 0.2 in terms of 1-BDC?
a: F

q: Please tell me: is the molecule Cc1ccc(CC(CO)Nc2ncnc3[nH]ccc23)cc1C (stereo not shown) at or over 0.2 in terms of 1-BDC?
a: F

q: Please tell me: is the molecule OC[C@@H]1C[C@H](F)CN1c1ncnc2[nH]ccc12 at or over 0.2 in terms of 1-BDC?
a: F

q: Please tell me: is the molecule Cc1ccc2c(c1)CC[C@@H](C(=O)Nc1nnc3n1CCCC3)O2 at or over 0.2 in terms of 1-BDC?
a: F

q: Please tell me: is the molecule CN(C)CC(CO)Nc1ncnc2[nH]ccc12 (stereo not shown) at or over 0.2 in terms of 1-BDC?
a: F

Reference source: paper doi:10.1101/2024.08.25.609621
